- Test system: LNCaP tumor-transplanted mouse
- ASSAY EXPLANATION: Internal radioactivity distribution using LNCaP tumor-transplanted mouse
- Assay type: in vivo
- PROTOCOL CONDITIONS: 192 h after administration
The label depends only on LNCaP Tumor: T if it is at least 1 % ID/g, F if it is smaller.

Examples with answers:
Dear colleague, could you confirm whether O=C([O-])CN(CCN(CCc1ccc(NC(=O)[C@H](CCCCNC(=O)CCC(=O)NCCCC[C@H](NC(=O)N[C@@H](CCC(=O)O)C(=O)O)C(=O)O)NC(=O)CCCc2ccc(I)cc2)cc1)CCN(CC(=O)[O-])Cc1cccc(C(=O)[O-])n1)Cc1cccc(C(=O)[O-])n1.[111In+3] [[^111In]In-Neunpa-2] has LNCaP Tumor at or above 1 % ID/g? T

Dear colleague, could you confirm whether O=C([O-])CN(Cc1cccc(C(=O)[O-])n1)C[C@H](Cc1ccc(NC(=O)CCCCCNC(=O)CCC(=O)NCCCC[C@H](NC(=O)N[C@@H](CCC(=O)O)C(=O)O)C(=O)O)cc1)N(CC(=O)[O-])Cc1cccc(C(=O)[O-])n1.[111In+3] [[^111In]In-Octapa-1, reference compound] has LNCaP Tumor at or above 1 % ID/g? F

Lab note: next molecule to report on.
Dear colleague, could you confirm whether O=C(O)CC[C@H](NC(=O)N[C@@H](CCCCNC(=O)[C@H](Cc1ccc2ccccc2c1)NC(=O)[C@H]1CC[C@H](CNC(=O)CCC(C(=O)O)N2CCN(CC(=O)O)CCN(C(CCC(=O)N[C@@H](CCCCNC(=O)CCCc3ccc(I)cc3)C(=O)O)C(=O)O)CCN(CC(=O)O)CC2)CC1)C(=O)O)C(=O)O (some centres unmarked) [[^111In]In-PSMA-NAT-DA1, metal not drawn] has LNCaP Tumor at or above 1 % ID/g? T

====

- Test system: LNCaP tumor-transplanted mouse
- ASSAY EXPLANATION: Internal radioactivity distribution using LNCaP tumor-transplanted mouse
- Format: in vivo
- PROTOCOL CONDITIONS: 1 h after administration
- Method: The animal test was performed in compliance with the guidelines of Kyoto University Animal Experiment Committee. […] LNCaP or PC-3 tumor-implanted mice were administered saline solutions (185 kBq, 100 μL) of [^111In]In-PSMA-DA1 or [^111In]In-PSMA-DB from the tail vein (n=3 each). […] Thereafter, blood and each organ were recovered, and the mass and radioactivity of the organs were measured. […]
In this section we review reported LNCaP Tumor values for a set of compounds.
Give your result in % ID/g as a bare value.

Quick one: LNCaP Tumor of O=C([O-])CN1CCN(C(CCC(=O)NCCC(=O)N2Cc3ccccc3-c3c(nnn3CCOCCOCCOCCOCCC(=O)NCCCC[C@H](NC(=O)N[C@@H](CCC(=O)O)C(=O)O)C(=O)O)-c3ccccc32)C(=O)[O-])CCN(CC(=O)[O-])CCN(C(CCC(=O)N[C@@H](CCCCNC(=O)CCCc2ccc(I)cc2)C(=O)O)C(=O)[O-])CC1.[111In+3] (stereo partly drawn) [[^111In]In-PtDA] ? 2.18

Quick one: LNCaP Tumor of O=C([O-])CN(CCN(CCc1ccc(NC(=O)[C@H](CCCCNC(=O)CCC(=O)NCCCC[C@H](NC(=O)N[C@@H](CCC(=O)O)C(=O)O)C(=O)O)NC(=O)CCCc2ccc(I)cc2)cc1)CCN(CC(=O)[O-])Cc1cccc(C(=O)[O-])n1)Cc1cccc(C(=O)[O-])n1.[111In+3] [[^111In]In-Neunpa-2] ? 7.44

Quick one: LNCaP Tumor of O=C([O-])CN(Cc1cccc(C(=O)[O-])n1)C[C@H](Cc1ccc(NC(=O)[C@H](CCCCNC(=O)CCC(=O)NCCCC[C@H](NC(=O)N[C@@H](CCC(=O)O)C(=O)O)C(=O)O)NC(=O)COCCOCCOCC(=O)N[C@@H](CCCCNC(=O)CCCc2ccc(I)cc2)C(=O)O)cc1)N(CC(=O)[O-])Cc1cccc(C(=O)[O-])n1.[111In+3] [[^111In]In-Octapa-3] ? 7.79

Quick one: LNCaP Tumor of O=C([O-])CN(CCN(CCc1ccc(NC(=O)CCCCCNC(=O)CCC(=O)NCCCC[C@H](NC(=O)N[C@@H](CCC(=O)O)C(=O)O)C(=O)O)cc1)CCN(CC(=O)[O-])Cc1cccc(C(=O)[O-])n1)Cc1cccc(C(=O)[O-])n1.[111In+3] [[^111In]In-Neunpa-1, reference compound] ? 1.06

Quick one: LNCaP Tumor of O=C([O-])CN1CCN(C(CCC(=O)NCCCC[C@H](NC(=O)N[C@@H](CCC(=O)O)C(=O)O)C(=O)O)C(=O)[O-])CCN(CC(=O)[O-])CCN(C(CCC(=O)Nc2ccccc2)C(=O)[O-])CC1.[111In+3] (stereo partly drawn) [[^111In]In-PSMA-DB, reference compound] ? 3.36

Quick one: LNCaP Tumor of O=C([O-])CN1CCN(C(CCC(=O)NCCCC[C@H](NC(=O)N[C@@H](CCC(=O)O)C(=O)O)C(=O)O)C(=O)[O-])CCN(CC(=O)[O-])CCN(C(CCC(=O)N[C@@H](CCCCNC(=O)CCCc2ccc(I)cc2)C(=O)O)C(=O)[O-])CC1.[111In+3] (stereo partly drawn) [[^111In]In-PSMA-DA1] ? 9.41

Quick one: LNCaP Tumor of O=C(O)CC[C@H](NC(=O)N[C@@H](CCCCNC(=O)[C@H](Cc1ccc2ccccc2c1)NC(=O)[C@H]1CC[C@H](CNC(=O)CCC(C(=O)O)N2CCN(CC(=O)O)CCN(C(CCC(=O)N[C@@H](CCCCNC(=O)CCCc3ccc(I)cc3)C(=O)O)C(=O)O)CCN(CC(=O)O)CC2)CC1)C(=O)O)C(=O)O (stereo partly drawn) [[^111In]In-PSMA-NAT-DA1, metal not drawn] ? 23.0

Quick one: LNCaP Tumor of O=C([O-])CN(Cc1cccc(C(=O)[O-])n1)C[C@H](Cc1ccc(NC(=O)CCCCCNC(=O)CCC(=O)NCCCC[C@H](NC(=O)N[C@@H](CCC(=O)O)C(=O)O)C(=O)O)cc1)N(CC(=O)[O-])Cc1cccc(C(=O)[O-])n1.[111In+3] [[^111In]In-Octapa-1, reference compound] ? 9.72

Pending compound:
Quick one: LNCaP Tumor of O=C([O-])CN(Cc1cccc(C(=O)[O-])n1)C[C@H](Cc1ccc(NC(=O)[C@H](CCCCNC(=O)CCC(=O)NCCCC[C@H](NC(=O)N[C@@H](CCC(=O)O)C(=O)O)C(=O)O)NC(=O)CCCc2ccc(I)cc2)cc1)N(CC(=O)[O-])Cc1cccc(C(=O)[O-])n1.[111In+3] [[^111In]In-Octapa-2] ? 12.5
